These entries and their values trace back to the supplement of paper PMC7877785.

Answer each item with its documented self-splicing fitness (ln).
protocol_summary: self-splicing fitness, log relative to wild type (ln ratio); higher = more splicing; Tetrahymena group I intron in knt gene, E. coli kanamycin selection, DiMSum; sequences stand for … in CUCUCU…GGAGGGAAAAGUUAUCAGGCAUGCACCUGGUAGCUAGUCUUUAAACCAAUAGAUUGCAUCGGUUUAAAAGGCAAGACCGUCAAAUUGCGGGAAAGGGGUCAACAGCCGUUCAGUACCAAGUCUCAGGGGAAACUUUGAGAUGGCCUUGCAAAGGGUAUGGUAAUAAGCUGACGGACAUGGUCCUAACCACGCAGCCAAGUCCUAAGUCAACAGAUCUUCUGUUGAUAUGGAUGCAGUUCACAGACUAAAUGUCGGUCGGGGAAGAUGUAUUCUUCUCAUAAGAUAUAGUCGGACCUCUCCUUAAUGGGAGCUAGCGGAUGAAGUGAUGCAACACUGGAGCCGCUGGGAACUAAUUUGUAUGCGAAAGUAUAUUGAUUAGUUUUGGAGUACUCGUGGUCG;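 also: selection with 25 µg/mL kanamycin versus none on LB agar overnight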
particulars: 37 °C
Lab note: jot the number down without any unit.

For reference, reported self-splicing fitness (ln) for `ACAAAGCAAUAUUACGCACG` stands at -0.724

Lab note: measured self-splicing fitness (ln) of `CAUAAGCAAUAUUACGUCAG` was 0.389

Measured self-splicing fitness (ln) of `CUGCAGCAAUAUUACGUACC` : -2.68

sequence `ACAUAGCAAUAUUACGUCCU` , self-splicing fitness (ln) observed: -0.297

get_value(item= `UUCUAGCAAUAUUACGUUGU` , readout=self-splicing fitness (ln)) returns -2.75

For `GGCCAGCAAUAUUACGACUG` the sequence record lists self-splicing fitness (ln) as -0.348

Data point: `UGUCAGCAAUAUUACGCGUA` ; self-splicing fitness (ln) = 0.148

The recorded self-splicing fitness (ln) for entry `GCACAGCAAUAUUACGUAUU` equals -0.335

self-splicing fitness (ln) reading for `GUAAAGCAAUAUUACGUAAC` : -1.38

Kindly note the recorded self-splicing fitness (ln) for `UGCUAGCAAUAUUACGACUA` , which is -0.872

Consider `UAGUAGCAAUAUUACGUGCU` . Its measured self-splicing fitness (ln) is -0.826

Entry `CUACAGCAAUAUUACGACGG` , self-splicing fitness (ln) reported as -0.265

The sequence listed as `GGGUAGCAAUAUUACGCGCG` shows self-splicing fitness (ln) equal to 0.558

For record `CCAUAGCAAUAUUACGCACU` the listed self-splicing fitness (ln) is -3.05

The measured self-splicing fitness (ln) associated with `CGCCAGCAAUAUUACGGUUA` reads 0.0109

Record summary for `CGAAAGCAAUAUUACGUGGC` : reported self-splicing fitness (ln) = -3.21

self-splicing fitness (ln) in this record for `CCAAAGCAAUAUUACGGUGC` : -2.19

// recorded self-splicing fitness (ln) for `AGGUAGCAAUAUUACGGGAU` : -1.49

What the record says about `ACUAAGCAAUAUUACGUGAU` : self-splicing fitness (ln) is -1.21

Entry under test: `UAUGAGCAAUAUUACGAUUA` . Its self-splicing fitness (ln) was 0.467

Summary for this sequence, `GGACAGCAAUAUUACGGGGG` : self-splicing fitness (ln) is -3.18

Lab note: measured self-splicing fitness (ln) of `GGACAGCAAUAUUACGUUAU` was 0.102

Memo: `AGGAAGCAAUAUUACGUGUA` , reported self-splicing fitness (ln): -0.914

Form: sequence = `AAAGAGCAAUAUUACGUAAC` ; self-splicing fitness (ln) = -2.88

Entry `AAAGAGCAAUAUUACGCUCC` — recorded self-splicing fitness (ln) = -2

Memo: `GUCGAGCAAUAUUACGAGUC` , reported self-splicing fitness (ln): -2.2

Lookup result for `CGACAGCAAUAUUACGUGUG` ; measured self-splicing fitness (ln): -1.1

get_value(item= `AGGUAGCAAUAUUACGUACG` , readout=self-splicing fitness (ln)) returns -0.48

Measured self-splicing fitness (ln), `UAAGAGCAAUAUUACGCCUA` : -1.41

Notebook: `GCAUAGCAAUAUUACGUUAU` , self-splicing fitness (ln) read as -3.08

The recorded self-splicing fitness (ln) for entry `UGGGAGCAAUAUUACGGGUG` equals -0.981

self-splicing fitness (ln) reported for this sequence `GUGCAGCAAUAUUACGCCUC` : 0.123

GET /value?item= `GAGUAGCAAUAUUACGUAAA` &field=self-splicing fitness (ln) returns -0.672

Just so you know, measured self-splicing fitness (ln) for `ACGGAGCAAUAUUACGGUUA` came out at -2.2

Looking up `CGUCAGCAAUAUUACGGCAA` , I see its self-splicing fitness (ln) listed as -1.89

Measured self-splicing fitness (ln) of `CCGGAGCAAUAUUACGUCGC` : -2.43

Recorded self-splicing fitness (ln) (sequence `AUUAAGCAAUAUUACGAAUG` ): -0.206

What the record says about `AGCAAGCAAUAUUACGGGAA` : self-splicing fitness (ln) is -1.03

Notebook: `CCUAAGCAAUAUUACGCCAA` , self-splicing fitness (ln) read as -3.27

What the record says about `GGAGAGCAAUAUUACGCAAG` : self-splicing fitness (ln) is -3.71

Just so you know, measured self-splicing fitness (ln) for `UACAAGCAAUAUUACGUGCG` came out at -0.158

`CGUCAGCAAUAUUACGCAAG` yielded self-splicing fitness (ln) of -0.63

// self-splicing fitness (ln) value for `GAUGAGCAAUAUUACGGGGU` : -2.92

Entry `UUCUAGCAAUAUUACGAGAA` ; self-splicing fitness (ln) = -2.11

Notebook: `CAUCAGCAAUAUUACGCAUC` , self-splicing fitness (ln) read as -1.02

get_value(item= `UUCGAGCAAUAUUACGGGAG` , readout=self-splicing fitness (ln)) returns -2.84

Form: sequence = `AGAAAGCAAUAUUACGCGGG` ; self-splicing fitness (ln) = -2.25

Quick note, self-splicing fitness (ln) for `AUCAAGCAAUAUUACGGAAU` landed at -1.03

Consider `ACGUAGCAAUAUUACGGUGC` . Its measured self-splicing fitness (ln) is -2.01

Form: sequence = `UAGCAGCAAUAUUACGCCAC` ; self-splicing fitness (ln) = -1.45

GET /value?item= `GGAAAGCAAUAUUACGUUUU` &field=self-splicing fitness (ln) returns -2.18

// recorded self-splicing fitness (ln) for `ACUGAGCAAUAUUACGGAGC` : -1.44

Record `UUCUAGCAAUAUUACGGAUC` , field self-splicing fitness (ln): -0.989

Looking up `CUCCAGCAAUAUUACGCCUU` , I see its self-splicing fitness (ln) listed as -2.29

Note to self: self-splicing fitness (ln) recorded for `CACAAGCAAUAUUACGGAUC` was -2.09

# self-splicing fitness (ln) of `UUCUAGCAAUAUUACGUAAC` = -1.32

Sure, the documented self-splicing fitness (ln) for `UACCAGCAAUAUUACGUGUC` is -2.23

Notebook: `CUCUAGCAAUAUUACGGCUA` , self-splicing fitness (ln) read as -1.28

Per the records, this sequence ( `UGUAAGCAAUAUUACGAUCC` ) has self-splicing fitness (ln) equal to -0.943

Briefly, self-splicing fitness (ln) measured for `UCCGAGCAAUAUUACGGGCU` : -2.97

# sequence `GGAAAGCAAUAUUACGGUGA` ; its self-splicing fitness (ln) = -0.6

The sequence identified as `AAGCAGCAAUAUUACGGCAC` registered its self-splicing fitness (ln) at -0.149

Lab note: `GAUUAGCAAUAUUACGUAGC` gave self-splicing fitness (ln) of -1.33

According to the records, this sequence `GAACAGCAAUAUUACGUUGG` displays self-splicing fitness (ln) of -1.94

So, `ACAUAGCAAUAUUACGUGGA` ? Its self-splicing fitness (ln) was -2.37

self-splicing fitness (ln) measured on `CUCAAGCAAUAUUACGCUUA` = -3.26

Reported self-splicing fitness (ln) ( `CAGCAGCAAUAUUACGCGUA` ) = -1.05
